# System: IGROV-1
# procedure_summary: NCI tumour cell line growth inhibition, 48 h
Active and inactive are the calls of the source. No stated cut-off is given here; in the data, active = GI50 up to about 1.1 µM and inactive = higher.
Labels: active, inactive

>  <compound>
Cc1cc(NC(=O)NC(=O)c2ccccc2NC(=O)CN)ccc1Oc1ncc(Br)cn1

>  <category_label>
active

$$$$
>  <compound>
CCOC(=O)NC(Nc1c(F)c(F)c(F)c(F)c1F)(C(F)(F)F)C(F)(F)F

>  <category_label>
inactive

$$$$
>  <compound>
Nn1c(S)nnc1NNC(=O)C(=O)Nc1cc(Cl)c(Cl)cc1Cl

>  <category_label>
inactive

$$$$
>  <compound>
Cc1cc(C)nc(NS(=O)(=O)c2ccc(Nc3c4ccccc4nc4c(C(=O)N5CCN(CCOS(C)(=O)=O)CC5)ccc(Cl)c34)cc2)n1

>  <category_label>
inactive

$$$$
>  <compound>
COC(=O)c1cc2c3c(ccc2[nH]1)N(C(=O)c1cc2cc(OC)c(OC)c(OC)c2[nH]1)CC3CCl (centres undefined)

>  <category_label>
inactive

$$$$
>  <compound>
CCc1c[n+]2c(cc1C1=CN3c4ccccc4[C@]45CCN6C/C(=C/CO)[C@H](C[C@H]64)[C@@H]([C@@H]1O)[C@H]35)-c1[nH]c3ccccc3c1CC2

>  <category_label>
inactive

$$$$
>  <compound>
Cc1cc(C)c(/C=C(\C(=C/c2c(C)cc(C)cc2C)[N+](=O)[O-])[N+](=O)[O-])c(C)c1

>  <category_label>
inactive

$$$$
>  <compound>
O=C(CCc1ccc(O)c(O)c1)NCCc1cc(O)cc(OCc2ccccc2)c1

>  <category_label>
inactive

$$$$
>  <compound>
COC(=O)c1c/c(=N\NC(=O)CC(=O)Nc2ccc(C)cc2)c2ccccc2o1

>  <category_label>
inactive

$$$$

* * *

# Test system: SF-268
# procedure_summary: NCI tumour cell line growth inhibition, 48 h
Active and inactive are the calls of the source. No stated cut-off is given here; in the data, active = GI50 up to about 1.1 µM and inactive = higher.

>  <compound>
O=CNc1ccc2c(c1)C(=O)c1ccccc1-2

>  <GI50>
47.3 µM (inactive)

$$$$
>  <compound>
CN1CCN(CCNc2ccc(CO)c3sc4ccccc4c(=O)c23)CC1

>  <GI50>
11.6 µM (inactive)

$$$$
>  <compound>
Cc1cc2c(cc1C)[n+]([O-])c(C(=O)CC(=O)C(=O)Nc1c(C(C)C)cccc1C(C)C)c(C)[n+]2[O-]

>  <GI50>
> 100 µM (inactive)

$$$$
>  <compound>
Cn1c2c([N+](=O)[O-])[se]nc2c(=O)n1-c1ccc([N+](=O)[O-])cc1

>  <GI50>
2.21 µM (inactive)

$$$$
>  <compound>
COc1ccc2c(C=O)c3n(c(=O)c2c1OC)CCc1cc2c(cc1-3)OCO2

>  <GI50>
> 100 µM (inactive)

$$$$
>  <compound>
O=c1c2cc([N+](=O)[O-])cnc2sn1-c1ccc(Br)cc1

>  <GI50>
27.5 µM (inactive)

$$$$
>  <compound>
C=C1CN(C2=NCCO2)C1

>  <GI50>
> 100 µM (inactive)

$$$$
>  <compound>
C=C(Cl)C(C)(Cl)CCC(Cl)C(C)C (stereo not drawn)

>  <GI50>
> 100 µM (inactive)

$$$$
>  <compound>
C[C@@H]1CC[C@@]2(OC1)O[C@H]1[C@@H](O)[C@H]3[C@@H]4CC[C@H]5C[C@@H](O[C@@H]6O[C@H](CO)[C@H](O[C@@H]7O[C@H](CO)C(O)[C@H](O[C@@H]8OC[C@@H](O)[C@H](O)[C@H]8O)[C@H]7O[C@@H]7O[C@H](CO)[C@H](O)[C@H](O[C@@H]8O[C@H](CO)[C@@H](O)[C@H](O)[C@H]8O)[C@H]7O)[C@H](O)[C@H]6O)[C@H](O)C[C@]5(C)[C@H]4CC[C@]3(C)[C@H]1[C@@H]2C (stereo partly drawn) [DIGITONIN]

>  <GI50>
2.09 µM (inactive)

$$$$
>  <compound>
CCCc1onc(CCC(=O)N(Cc2ccccc2)Cc2ccccc2)c1CC

>  <GI50>
> 100 µM (inactive)

$$$$
>  <compound>
Nc1nc(Cl)c2ncn(Cc3ccccc3CCl)c2n1

>  <GI50>
4.71 µM (inactive)

$$$$
>  <compound>
Nc1ncnc2c1ncn2COC/C=C/I

>  <GI50>
> 100 µM (inactive)

$$$$
>  <compound>
O=C(Nc1ccc(Cl)c(Cl)c1)C(=O)Nn1c(S)nc2ccccc2c1=O

>  <GI50>
> 100 µM (inactive)

$$$$
>  <compound>
S=c1[nH]nc(COc2ccc3c(c2)CCCC3)n1/N=C/c1ccc(Cl)cc1

>  <GI50>
17.9 µM (inactive)

$$$$
>  <compound>
COc1cc(CCc2ccc(OCCN(C)C)cc2)cc(OC)c1OC

>  <GI50>
> 100 µM (inactive)

$$$$
>  <compound>
CCC(=O)c1ccc2[nH]c3c(C)c4c(O)cc(C)nc4c(C)c3c2c1

>  <GI50>
> 100 µM (inactive)

$$$$
>  <compound>
O=C1Nc2ccccc2N/C1=C\C(=O)c1ccccc1O

>  <GI50>
> 100 µM (inactive)

$$$$
>  <compound>
COC(=O)/C(=C\c1ccc(N(CCC#N)CCC#N)cc1)NC(=O)c1cc([N+](=O)[O-])ccc1Cl

>  <GI50>
> 100 µM (inactive)

$$$$

Data provenance is ChEMBL document CHEMBL1201862.
